Measured hGIPR Potency, no HSA, EC50 [pM] of individual entries
Biological target: T1, human GIP receptor (human, UniProt P48546 22-466)
T1 sequence (looked up): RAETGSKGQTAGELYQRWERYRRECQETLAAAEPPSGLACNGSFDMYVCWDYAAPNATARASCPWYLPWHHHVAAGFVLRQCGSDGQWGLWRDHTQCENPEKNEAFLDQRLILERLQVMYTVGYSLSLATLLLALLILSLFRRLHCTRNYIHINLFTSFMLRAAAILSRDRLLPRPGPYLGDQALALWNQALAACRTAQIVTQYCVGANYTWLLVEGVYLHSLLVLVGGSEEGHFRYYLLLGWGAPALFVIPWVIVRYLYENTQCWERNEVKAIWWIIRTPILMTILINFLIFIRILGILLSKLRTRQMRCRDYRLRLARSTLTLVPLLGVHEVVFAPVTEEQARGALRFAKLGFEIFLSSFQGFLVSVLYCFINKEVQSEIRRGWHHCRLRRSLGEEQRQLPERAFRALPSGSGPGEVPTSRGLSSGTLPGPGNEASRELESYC
Test: cell-based or functional assay
Numbered stars: 1 amine (or outer) side, 2 acyl side, 3 side chain; on linkers, the order of the positions; unused ones are H or OH. Square brackets hold non-standard residues; d marks the D form. Side chains are listed from the residue outwards. * marks the point of attachment. C16 diacid = O=C(O)CCCCCCCCCCCCCCC(=O)*; γGlu = O=C(O)[C@H](CCC(=O)[*:2])N[*:1]; Chem. 28 = not defined here; AEEA = NCCOCCOCC(=O)O; Aib = CC(C)(N)C(=O)O
Report only the number, with the unit pM understood.

| binder | observable | readout unit | meas value |
| --- | --- | --- | --- |
| Compound 62 (peptide) peptide: H[Aib]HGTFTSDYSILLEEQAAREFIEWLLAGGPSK([AEEA-AEEA-γGlu-C16 diacid])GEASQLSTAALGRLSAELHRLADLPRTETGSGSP-NH2 | hGIPR Potency, no HSA, EC50 [pM] | pM | 2.26 |

Lab note: next binder to report on.
stdin: Returns the measured hGIPR Potency, no HSA, EC50 [pM] for the input binder. Input: Compound 35 (reading uncertain) peptide: Y[Aib]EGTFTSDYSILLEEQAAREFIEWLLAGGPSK(Chem. 28)GEASHLSTAQTARLSAELHELATLPRTETGSGSP-NH2
stdout: 1.97
